- Assay procedure: blockers of mitochondrial fusion, WT vs mutant – cell-based, chemical genetic, wild-type and mutant, confirmation (AID 1361)
- Condition parameters: Cell-based mitochondrial fusion phenotype, imaging, WT cells
The source made the active and inactive calls. The rule behind the calls is not given here.
Possible outcomes: active, inactive

Compound	Class
O=c1cc(N2CCCCC2)c(-c2ccccc2)nn1Cc1c(Cl)cccc1Cl	active
O=C(C1=C[C@H](c2csc3ccccc23)C[C@H](OCc2ccc(CO)cc2)O1)N1CCN(Cc2ccc3c(c2)OCO3)CC1	active
COc1ccc(OC)c(S(=O)(=O)Nc2ccc(Oc3ccccc3)cc2)c1	inactive
Nc1ccc2nc(CN3CCOCC3)[nH]c2c1	inactive
c1ccc2c(c1)CCN(c1ncnc3c1[nH]c1ccccc13)C2	inactive
CCOc1ccccc1NC(=O)C(OC(=O)c1ccc(O)cc1)c1ccccc1 (stereo not drawn)	active
N/C(Cc1ccccc1)=N\OC(=O)c1cccc2ccccc12	inactive
CC(C)(C)C1CCc2c(sc(NC(=O)CSc3ncn[nH]3)c2C#N)C1 (stereo not drawn)	active
Cc1ccc(-n2cc(-c3ccccc3)c3c(N4CCOCC4)ncnc32)cc1	active
COC(=O)C1CSc2[nH]c(=O)sc2C1c1ccc(OC)c(OC)c1 (stereo not drawn)	inactive
Cc1onc(-c2ccccc2Cl)c1C(=O)Nc1nnc(-c2ccc(Br)cc2)s1	active
O=C(CN1CCN(S(=O)(=O)c2ccc(Cl)s2)CC1)NCc1ccc(Cl)cc1	inactive
Cc1ccc2nc(SC(C(=O)Nc3ccc(F)cc3)c3ccccc3)[nH]c2c1 (stereo not drawn)	inactive
CCCc1c(C)[nH]c2ccc(NC(C)=O)cc2c1=O	inactive
N#CCc1ccc(NS(=O)(=O)c2ccc(C3CCCCC3)cc2)cc1	active
COC(=O)c1c(NC(=O)CN2CCC3(O)CCCCC3C2c2ccc(F)cc2)sc(C)c1C (stereo not drawn)	active
O=C(Nn1c(-c2ccccc2)nc2ccccc2c1=O)C1CCC1	inactive
O=C(N=Nc1c(O)n(Cc2ccccc2)c2ccccc12)c1cc2ccccc2cc1O	inactive
CCOC(=O)c1c(-c2ccc(OC)cc2)csc1/N=C/C1=C(O)CCCC1=O	inactive
COc1cc(CNn2cn[nH]c2=S)cc(Cl)c1OCc1ccc(F)cc1	active
Cc1ccc(-n2c(-c3ccccc3)cc(/C=N/NC(=O)CC#N)c2-c2ccccc2)cc1	inactive
CC(Sc1ccc(Cl)cc1)C(=O)Nc1ccccc1-c1ccccc1 (stereo not drawn)	active
COCCn1c(CN2CCC(Cc3ccccc3)CC2)nc2c1c(=O)n(C)c(=O)n2C	inactive
CCN=c1scc(-c2ccco2)n1/N=C/c1ccc(OC)c(O)c1	inactive
N#Cc1c(-c2cccnc2)c2c([nH]c1=S)CCCC2	inactive
OC(CNCc1ccc(Cl)cc1)(c1ccccc1)c1ccc(F)cc1 (stereo not drawn)	inactive
Cc1cc(NCCCn2ccnc2)n2ncc(-c3ccc(Cl)cc3)c2n1	active
Cc1nc2ccc(NC(=O)c3nn(CC(C)C)c(=O)c4ccccc34)cc2s1	inactive
O=C1CC(SCc2nc3ccccc3[nH]2)C(=O)N1c1cccc(F)c1 (stereo not drawn)	inactive
N#CCCN(CCC#N)c1nnc(-c2ccccc2)s1	inactive
Clc1ccc(C2=Nn3c(nnc3-c3cc(-c4ccccc4)n[nH]3)SC2)cc1	inactive
COc1ccc(CCN(Cc2cc3cc(C)cc(C)c3nc2Cl)C(=O)C2CC2)cc1	active
FC(F)(F)c1cc(-c2ccco2)nc(NCc2ccc(Cl)cc2)n1	active
O=C(c1ccc(C(F)(F)F)cc1)N1CCC(=O)N(C(COCc2ccc(Cl)cc2)Cc2ccccc2)CC1 (stereo not drawn)	active
CCc1cc2c(=O)c(-c3cscn3)coc2cc1O	inactive
Cc1ccc(C(C)C)c(OCCNC(=S)Nc2cccc3ccccc23)c1	active
N=c1c(C(=O)NCc2ccco2)cc2c(=O)n3ccccc3nc2n1Cc1ccc(Cl)cc1	inactive
Oc1cccc(C2c3[nH]c4ccccc4c3CCN2Cc2cnn(-c3ccccc3)c2)c1 (stereo not drawn)	inactive
CCN(c1ccccc1)S(=O)(=O)c1cnc[nH]1	inactive
Cc1ccc(C(=O)NCc2ccc(N3CCN(C(=O)OC(C)(C)C)CC3)cc2)cc1	inactive
CCC(C)(C)c1ccc(Oc2ccc(N)cc2)cc1	inactive
CC(c1ccccc1)N(CC(=O)NC1CCCCC1)S(=O)(=O)c1cccc(C(F)(F)F)c1 (stereo not drawn)	active
CCOC(=O)CSc1n[nH]c(-c2cccnc2)n1	inactive
